biological target: human vasopressin V2 receptor subtype (Homo sapiens, UniProt P30518); construct: host or cells: CHO cells (pZeoSV vector); assay: Vasopressin binding in Chinese Hamster Ovary cell membranes expressing human vasopressin V2 subtype receptors; conditions: 100 nM, CHO cell membranes, [3H]arginine vasopressin, values without parentheses
Sequence (P30518 whole entry): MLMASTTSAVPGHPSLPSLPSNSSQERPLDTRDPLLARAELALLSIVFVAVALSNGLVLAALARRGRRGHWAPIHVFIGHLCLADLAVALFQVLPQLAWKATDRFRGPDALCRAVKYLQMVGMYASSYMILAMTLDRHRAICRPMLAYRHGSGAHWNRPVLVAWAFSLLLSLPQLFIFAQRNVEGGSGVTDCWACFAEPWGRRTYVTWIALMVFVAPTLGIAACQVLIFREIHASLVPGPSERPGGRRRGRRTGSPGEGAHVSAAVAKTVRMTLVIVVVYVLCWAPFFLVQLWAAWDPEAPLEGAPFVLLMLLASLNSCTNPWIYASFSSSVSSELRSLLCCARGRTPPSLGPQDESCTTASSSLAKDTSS
measured quantity: inhibition at 0.1 µM
Please state the value followed by its unit.

Prompt: For the compound Cc1ccccc1-c1ccc(C(=O)N2Cc3ccc(C(=O)NCCCN(C)C)n3Cc3ccccc32)cc1C [Example 73] , report inhibition at 0.1 µM.
Completion: 21%

Prompt: For the compound Cc1cc(C(=O)N2Cc3cccn3Cc3ncccc32)ccc1-c1ccccc1C(F)(F)F [Example 323F] , report inhibition at 0.1 µM.
Completion: 5%

Prompt: For the compound COc1cc(C(=O)N2Cc3ccc(C(=O)NCCC4CCCN4C)n3Cc3ccccc32)ccc1-n1c(C)ccc1C (stereo not drawn) [Example 315] , report inhibition at 0.1 µM.
Completion: -4%

Prompt: For the compound Cc1ccccc1-c1ccc(C(=O)N2Cc3ccc(C(=O)NCCC4CCCN4C)n3Cc3ccccc32)cc1 (stereo not drawn) [Example 166] , report inhibition at 0.1 µM.
Completion: 3%

Prompt: For the compound COc1cc(-c2ccccc2C)c(Cl)cc1C(=O)N1Cc2ccc(C(=O)N[C@@H](CCCCNC(=O)OC(C)(C)C)C(N)=O)n2Cc2ccccc21 [Example 304] , report inhibition at 0.1 µM.
Completion: 19%

Prompt: For the compound COc1cc(C(=O)N2Cc3ccc(C(=O)N(C)C4CCN(C)C4)n3Cc3ccccc32)ccc1-c1cccc2ccccc12 (stereo not drawn) [Example 192] , report inhibition at 0.1 µM.
Completion: 28%
